What Albumin was measured for each of the following?
- Cond: rat, in vivo, sc, 50 mg/kg
e = 2'-O-(2-methoxyethyl) (MOE); d = 2'-deoxy (DNA)

{"Substance": "ISIS 445530: 5-8-5 or 6-8-6 MOE microwalk gapmer (Table 44) (antisense GCATTGGTGCACAGTTTC; sugars from the 5' end e5 d8 e5, backbone and methylation of C not given here)", "Albumin": 3.7}
{"Substance": "ISIS 445498: 5-8-5 or 6-8-6 MOE microwalk gapmer (Table 44) (antisense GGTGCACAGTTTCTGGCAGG; sugars from the 5' end e6 d8 e6, backbone and methylation of C not given here)", "Albumin": 3.7}
{"Substance": "ISIS 445505: 5-8-5 or 6-8-6 MOE microwalk gapmer (Table 44) (antisense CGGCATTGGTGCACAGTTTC; sugars from the 5' end e6 d8 e6, backbone and methylation of C not given here)", "Albumin": 3.6}

Working through the 3 substances below one at a time, give Albumin for each.
1. ISIS 445513: 5-8-5 or 6-8-6 MOE microwalk gapmer (Table 44) (antisense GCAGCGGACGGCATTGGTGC; sugars from the 5' end e6 d8 e6, backbone and methylation of C not given here)
2. ISIS 445504: 5-8-5 or 6-8-6 MOE microwalk gapmer (Table 44) (antisense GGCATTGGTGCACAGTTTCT; sugars from the 5' end e6 d8 e6, backbone and methylation of C not given here)
3. ISIS 445509: 5-8-5 or 6-8-6 MOE microwalk gapmer (Table 44) (antisense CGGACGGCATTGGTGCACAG; sugars from the 5' end e6 d8 e6, backbone and methylation of C not given here)

[3.5, 3.5, 3.5]

* * *

- Cond: rat, in vivo, sc, 50 mg/kg
e = 2'-O-(2-methoxyethyl) (MOE); d = 2'-deoxy (DNA)
Property Name: BUN (mg/dL)
Numbers only, in mg/dL.

Use these answered entries as a reference point.
{"Substance": "ISIS 412223: 5-10-5 MOE gapmer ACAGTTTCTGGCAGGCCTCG (sugars from the 5' end e5 d10 e5, backbone and methylation of C not given here)", "Unit Label": "mg/dL", "BUN": 24}
{"Substance": "ISIS 412225: 5-10-5 MOE gapmer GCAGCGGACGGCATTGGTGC (sugars from the 5' end e5 d10 e5, backbone and methylation of C not given here)", "Unit Label": "mg/dL", "BUN": 23}
{"Substance": "ISIS 416861: MOE gapmer, nucleobases 1275 to 1318 of SEQ ID NO: 1 (Table 8) (antisense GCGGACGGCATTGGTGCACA; MOE gapmer, wing and gap sizes not given here)", "Unit Label": "mg/dL", "BUN": 22}
{"Substance": "ISIS 416848: MOE gapmer, nucleobases 1275 to 1318 of SEQ ID NO: 1 (Table 8) (antisense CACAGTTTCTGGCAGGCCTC; MOE gapmer, wing and gap sizes not given here)", "Unit Label": "mg/dL", "BUN": 26}

Field request: BUN | item: ISIS 416863: MOE gapmer, nucleobases 1275 to 1318 of SEQ ID NO: 1 (Table 8) (antisense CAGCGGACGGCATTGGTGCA; MOE gapmer, wing and gap sizes not given here)
29

* * *

- Set-up: species or system Sprague-Dawley rats
- Cond: rat, in vivo
Property Name: Half-life in the liver and kidney (days)
Give bare numbers, in days.

Use the examples below as a reference point.
{"Substance": "416892 (antisense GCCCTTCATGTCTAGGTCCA; 3-14-3 chimeric gapmer, further chemistry not given here) [compound 416892]", "Property Name": "Half-life in the liver and kidney", "Observed": 12}
{"Substance": "416858 (antisense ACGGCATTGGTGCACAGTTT; 5-10-5 gapmer, further chemistry not given here) [compound 416858]", "Property Name": "Half-life in the liver and kidney", "Observed": 26}
{"Substance": "417002 (antisense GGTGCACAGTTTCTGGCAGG; 2-13-5 gapmer chemistry, further chemistry not given here) [compound 417002]", "Property Name": "Half-life in the liver and kidney", "Observed": 11}
{"Substance": "416825 (antisense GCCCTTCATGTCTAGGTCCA; 5-10-5 gapmer, further chemistry not given here) [compound 416825]", "Property Name": "Half-life in the liver and kidney", "Observed": 16}
{"Substance": "416826 (antisense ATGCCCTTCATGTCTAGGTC; 5-10-5 gapmer, further chemistry not given here) [compound 416826]", "Property Name": "Half-life in the liver and kidney", "Observed": 13}
{"Substance": "416999 (antisense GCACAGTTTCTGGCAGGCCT; 2-13-5 gapmer chemistry, further chemistry not given here) [compound 416999]", "Property Name": "Half-life in the liver and kidney", "Observed": 9}
{"Substance": "416864 (antisense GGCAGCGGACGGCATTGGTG; 5-10-5 gapmer, further chemistry not given here) [compound 416864]", "Property Name": "Half-life in the liver and kidney", "Observed": 13}

Find the recorded Half-life in the liver and kidney belonging to 417003 (antisense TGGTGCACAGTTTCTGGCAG; 2-13-5 gapmer chemistry, further chemistry not given here) [compound 417003] and report it.
10
